ASSAY_INFO: Tissue distribution and metabolites in nude mice bearing CWR-22Rv1 cancers
Type: in vivo, mouse
RUN_CONDITIONS: male, nude, mouse, CWR-22Rv1 cancer tissue; CWR-22Rv1 cancer, 4 hours post oral 5mg/kg tasquinimod, 1gm tissue = 1ml; read-out: concentration in CWR-22Rv1 cancer
ENDPOINT_NAME: concentration at 4 h (nM)

INSERT INTO assay_data (compound, relational_operator, measured_value) VALUES
  ('COc1cccc2[nH]c(=O)c(C(=O)N(C)c3ccc(C(F)(F)F)cc3)c(O)c12 [Quinoline-N-demethylate]', '<', 30),
  ('COc1cccc2c1c(O)c(C(=O)N(C)c1ccc(C(F)(F)F)cc1)c(=O)n2C [Tasquinimod]', '=', 2240),
  ('COc1cccc2c1c(O)c(C(=O)Nc1ccc(C(F)(F)F)cc1)c(=O)n2C [Carboxamide-N-demethylate]', '<', 30),
  ('CN(C(=O)c1c(O)c2c(O)cccc2n(C)c1=O)c1ccc(C(F)(F)F)cc1 [Quinoline-O-demethylate]', '=', 460);

* * *

ASSAY_INFO: Tissue distribution and metabolites in nude mice bearing CWR-22Rv1 cancers
Assay type: in vivo, mouse
RUN_CONDITIONS: liver, 4 hours post oral 5mg/kg tasquinimod
Experimental: To determine the concentration of metabolites, nude mice bearing CWR-22Rv1 prostate cancers were orally administered with 5 mg/kg of ^14C- radiolabeled tasquinimod and 4 and 24 hours later, blood plasma and liver, kidney, and cancer tissue harvested and analyzed for determination of metabolites. […]
ENDPOINT_NAME: percentage of total drug in liver

INSERT INTO measurements (molecule, endpoint_name, measured_value) VALUES
  ('CN(C(=O)c1c(O)c2c(O)cccc2n(C)c1=O)c1ccc(C(F)(F)F)cc1 [Quinoline-O-demethylate]', 'percentage of total drug in liver', '62+/-7%'),
  ('COc1cccc2c1c(O)c(C(=O)Nc1ccc(C(F)(F)F)cc1)c(=O)n2C [Carboxamide-N-demethylate]', 'percentage of total drug in liver', '< 1%'),
  ('COc1cccc2c1c(O)c(C(=O)N(C)c1ccc(C(F)(F)F)cc1)c(=O)n2C', 'percentage of total drug in liver', '29+/-5%'),
  ('COc1cccc2[nH]c(=O)c(C(=O)N(C)c3ccc(C(F)(F)F)cc3)c(O)c12 [Quinoline-N-demethylate]', 'percentage of total drug in liver', '2+/-1%');

* * *

TESTED_TARGET: UniProt P02769
Sequence (P02769 25-607): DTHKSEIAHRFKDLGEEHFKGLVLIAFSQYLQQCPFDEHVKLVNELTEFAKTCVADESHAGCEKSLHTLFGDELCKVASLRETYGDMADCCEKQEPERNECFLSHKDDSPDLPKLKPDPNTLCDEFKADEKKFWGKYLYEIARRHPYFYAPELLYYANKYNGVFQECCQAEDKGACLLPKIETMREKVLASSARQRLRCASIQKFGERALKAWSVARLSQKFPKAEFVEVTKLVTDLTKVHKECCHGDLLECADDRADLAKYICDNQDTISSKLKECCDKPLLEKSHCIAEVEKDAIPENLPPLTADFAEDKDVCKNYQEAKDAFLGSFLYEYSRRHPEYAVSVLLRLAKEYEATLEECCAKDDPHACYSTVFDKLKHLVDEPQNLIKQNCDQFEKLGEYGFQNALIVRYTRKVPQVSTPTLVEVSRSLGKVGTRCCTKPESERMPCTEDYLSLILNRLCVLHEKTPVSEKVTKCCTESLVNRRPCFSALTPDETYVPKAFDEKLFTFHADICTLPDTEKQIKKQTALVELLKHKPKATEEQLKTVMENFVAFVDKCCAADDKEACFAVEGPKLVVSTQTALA
pKd: −log10 of the molar value.
ENDPOINT_NAME: pKd

INSERT INTO assay_data (smiles_structure, measured_value) VALUES
  ('COc1cccc2c1c(O)c(C(=O)N(C)c1ccc(C(F)(F)F)cc1)c(=O)n2C', 4.51);

* * *

ASSAY_INFO: Plasma pharmacokinetics after oral gavage in nude mice bearing CWR-22Rv1 xenografts
Type: in vivo, mouse
RUN_CONDITIONS: male, nude, mouse, plasma, po, 5 mg/kg, 5 mg/kg oral; read-out: β-elimination phase half-life
ENDPOINT_NAME: half-life

INSERT INTO results (smiles_structure, endpoint_name, measured_value) VALUES
  ('COc1cccc2c1c(O)c(C(=O)N(C)c1ccc(C(F)(F)F)cc1)c(=O)n2C', 'half-life', '> 10 h');

* * *

ASSAY_INFO: Plasma pharmacokinetics after oral gavage in nude mice bearing CWR-22Rv1 xenografts
Type: in vivo, mouse
RUN_CONDITIONS: male, mouse, plasma; 5 mg/kg oral gavage, nude mice; read-out: time to maximum plasma concentration
ENDPOINT_NAME: Tmax

INSERT INTO measurements (molecule, measured_value) VALUES
  ('COc1cccc2c1c(O)c(C(=O)N(C)c1ccc(C(F)(F)F)cc1)c(=O)n2C [Tasquinimod]', '≤ 1 h');
